Reference source for all entries: paper PMC12445503

Target: Cav1.3 (Homo sapiens)
Construct: human Cav1.3S (C-terminal short splice variant, exon 8b) α1 stably expressed in tsA-201 cells; with auxiliary β3 (rat) and α2δ1 (rabbit) subunits
Sequence (Q01668 whole entry, canonical isoform): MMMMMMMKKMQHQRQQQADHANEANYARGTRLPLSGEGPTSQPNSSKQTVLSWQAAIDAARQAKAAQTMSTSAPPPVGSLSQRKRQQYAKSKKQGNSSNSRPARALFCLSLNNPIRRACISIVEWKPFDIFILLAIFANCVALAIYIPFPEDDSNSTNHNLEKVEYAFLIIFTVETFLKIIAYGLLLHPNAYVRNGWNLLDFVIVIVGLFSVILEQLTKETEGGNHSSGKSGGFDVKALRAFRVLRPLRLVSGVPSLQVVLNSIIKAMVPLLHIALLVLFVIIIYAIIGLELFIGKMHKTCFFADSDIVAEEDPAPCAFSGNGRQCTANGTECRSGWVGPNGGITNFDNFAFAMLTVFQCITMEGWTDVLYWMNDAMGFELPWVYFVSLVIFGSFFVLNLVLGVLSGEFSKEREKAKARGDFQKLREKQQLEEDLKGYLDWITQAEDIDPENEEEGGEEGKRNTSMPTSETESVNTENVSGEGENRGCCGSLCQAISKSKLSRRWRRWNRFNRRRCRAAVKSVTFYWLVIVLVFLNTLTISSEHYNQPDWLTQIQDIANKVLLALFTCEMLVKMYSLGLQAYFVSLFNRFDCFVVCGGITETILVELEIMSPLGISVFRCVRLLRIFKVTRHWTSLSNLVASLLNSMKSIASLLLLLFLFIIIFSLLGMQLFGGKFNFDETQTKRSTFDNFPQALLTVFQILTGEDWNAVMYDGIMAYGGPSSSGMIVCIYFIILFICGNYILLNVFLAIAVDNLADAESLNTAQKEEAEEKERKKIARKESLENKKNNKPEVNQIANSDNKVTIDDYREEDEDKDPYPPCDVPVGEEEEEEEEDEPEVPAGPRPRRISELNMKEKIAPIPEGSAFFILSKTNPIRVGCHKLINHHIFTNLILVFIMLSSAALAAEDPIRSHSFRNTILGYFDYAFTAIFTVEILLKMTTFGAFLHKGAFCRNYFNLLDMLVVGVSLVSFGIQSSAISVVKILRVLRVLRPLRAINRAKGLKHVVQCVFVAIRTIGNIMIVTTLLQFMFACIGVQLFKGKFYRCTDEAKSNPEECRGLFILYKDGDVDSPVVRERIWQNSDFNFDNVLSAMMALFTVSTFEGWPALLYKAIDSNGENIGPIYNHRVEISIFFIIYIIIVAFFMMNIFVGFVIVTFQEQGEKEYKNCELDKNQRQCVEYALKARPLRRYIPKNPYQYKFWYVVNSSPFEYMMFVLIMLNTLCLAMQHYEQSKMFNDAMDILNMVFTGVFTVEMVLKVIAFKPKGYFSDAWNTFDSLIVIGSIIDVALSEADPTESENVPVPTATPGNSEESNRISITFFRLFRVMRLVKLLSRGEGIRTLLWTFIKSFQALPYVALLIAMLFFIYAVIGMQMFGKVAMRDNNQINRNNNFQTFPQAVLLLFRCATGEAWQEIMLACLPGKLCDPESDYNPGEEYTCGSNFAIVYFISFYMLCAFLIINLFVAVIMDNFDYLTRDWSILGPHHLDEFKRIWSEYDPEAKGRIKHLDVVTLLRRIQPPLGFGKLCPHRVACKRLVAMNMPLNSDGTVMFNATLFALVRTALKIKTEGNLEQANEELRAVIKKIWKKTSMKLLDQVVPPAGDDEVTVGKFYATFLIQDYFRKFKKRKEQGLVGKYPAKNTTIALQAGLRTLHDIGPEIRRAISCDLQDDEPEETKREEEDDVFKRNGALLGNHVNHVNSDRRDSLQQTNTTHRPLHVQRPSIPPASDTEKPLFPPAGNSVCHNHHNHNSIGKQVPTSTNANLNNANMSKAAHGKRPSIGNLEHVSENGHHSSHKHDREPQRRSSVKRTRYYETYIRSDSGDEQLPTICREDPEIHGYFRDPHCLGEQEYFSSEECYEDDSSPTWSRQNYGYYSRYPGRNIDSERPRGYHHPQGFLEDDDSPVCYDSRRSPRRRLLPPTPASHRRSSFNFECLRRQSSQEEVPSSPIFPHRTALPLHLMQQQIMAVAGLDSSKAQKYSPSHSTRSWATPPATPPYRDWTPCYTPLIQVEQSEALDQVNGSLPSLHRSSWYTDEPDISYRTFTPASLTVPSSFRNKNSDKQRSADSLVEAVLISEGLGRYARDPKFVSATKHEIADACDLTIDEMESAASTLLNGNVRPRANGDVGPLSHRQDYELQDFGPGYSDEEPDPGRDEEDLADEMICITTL
Sequence (P54287 whole entry partner, canonical isoform): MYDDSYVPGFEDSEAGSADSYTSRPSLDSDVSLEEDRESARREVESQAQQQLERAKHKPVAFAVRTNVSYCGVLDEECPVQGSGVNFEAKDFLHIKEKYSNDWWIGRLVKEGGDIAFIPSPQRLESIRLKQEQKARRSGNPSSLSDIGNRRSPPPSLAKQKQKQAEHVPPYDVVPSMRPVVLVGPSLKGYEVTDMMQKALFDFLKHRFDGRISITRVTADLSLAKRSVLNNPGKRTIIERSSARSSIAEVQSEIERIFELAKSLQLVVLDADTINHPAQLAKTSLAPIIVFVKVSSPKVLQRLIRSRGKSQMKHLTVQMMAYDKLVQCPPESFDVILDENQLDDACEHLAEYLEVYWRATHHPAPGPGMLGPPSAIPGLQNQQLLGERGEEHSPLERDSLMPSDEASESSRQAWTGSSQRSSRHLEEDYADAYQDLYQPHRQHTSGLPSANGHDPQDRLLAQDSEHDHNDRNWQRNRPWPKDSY
Sequence (P13806 27-960 partner): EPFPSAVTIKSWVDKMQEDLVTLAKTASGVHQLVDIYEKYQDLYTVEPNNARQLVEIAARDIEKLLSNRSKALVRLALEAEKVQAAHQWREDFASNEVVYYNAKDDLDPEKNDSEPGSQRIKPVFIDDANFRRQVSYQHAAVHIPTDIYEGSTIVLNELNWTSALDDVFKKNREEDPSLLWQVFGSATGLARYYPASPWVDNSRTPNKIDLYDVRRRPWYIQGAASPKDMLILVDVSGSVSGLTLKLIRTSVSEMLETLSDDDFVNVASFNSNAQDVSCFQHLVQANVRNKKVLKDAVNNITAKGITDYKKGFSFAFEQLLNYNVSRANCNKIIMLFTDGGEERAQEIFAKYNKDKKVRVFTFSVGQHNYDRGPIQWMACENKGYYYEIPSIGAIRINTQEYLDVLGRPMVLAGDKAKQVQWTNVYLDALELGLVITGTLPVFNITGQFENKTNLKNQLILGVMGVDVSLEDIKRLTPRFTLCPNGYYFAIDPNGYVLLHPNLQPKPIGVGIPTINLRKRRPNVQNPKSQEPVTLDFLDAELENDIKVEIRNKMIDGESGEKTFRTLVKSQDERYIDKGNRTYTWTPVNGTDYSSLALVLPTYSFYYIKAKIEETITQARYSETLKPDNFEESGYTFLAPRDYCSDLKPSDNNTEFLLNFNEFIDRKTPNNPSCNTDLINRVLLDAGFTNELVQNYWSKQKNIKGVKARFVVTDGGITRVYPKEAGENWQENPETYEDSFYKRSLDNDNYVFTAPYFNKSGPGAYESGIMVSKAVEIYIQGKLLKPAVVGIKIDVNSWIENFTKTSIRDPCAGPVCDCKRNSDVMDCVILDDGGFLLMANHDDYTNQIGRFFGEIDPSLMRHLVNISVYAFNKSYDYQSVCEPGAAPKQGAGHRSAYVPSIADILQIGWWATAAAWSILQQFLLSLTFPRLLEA
Sequence (P13806 961-1106 partner): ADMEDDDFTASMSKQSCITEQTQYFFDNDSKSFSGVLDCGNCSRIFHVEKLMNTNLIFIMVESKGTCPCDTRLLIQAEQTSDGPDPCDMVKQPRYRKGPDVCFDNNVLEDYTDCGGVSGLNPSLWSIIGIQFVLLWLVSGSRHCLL
Assay: whole-cell patch-clamp concentration-response, […] Ca2+, HP -89 mV, […] Hz
pIC50: −log10 of the molar value.
# pIC50 annotations

{"molecule": "COC(=O)C1=C(C)NC(C)=C(C(=O)OC(C)C)C1c1cccc2nonc12 (centres unmarked) [isradipine]", "system_tested": "Cav1.3 (Homo sapiens)", "pIC50": 6.87}
{"molecule": "C=C[C@](C)(O)CC[C@@H]1[C@@]2(C)CCCC(C)(C)[C@@H]2CC[C@@]1(C)O [sclareol]", "system_tested": "Cav1.3 (Homo sapiens)", "pIC50": 4.79}

----------
Biological target: Cav1.2 (Homo sapiens, UniProt Q13936)
Construct: human Cav1.2 α1 stably expressed in tsA-201 cells; with auxiliary β3 (rat) and α2δ1 (rabbit) subunits
Test: whole-cell patch-clamp concentration-response, […] Ca2+, HP -89 mV, […] Hz
pIC50: −log10 of the molar value.
value_type: pIC50

{"compound": "C=C[C@](C)(O)CC[C@@H]1[C@@]2(C)CCCC(C)(C)[C@@H]2CC[C@@]1(C)O [sclareol]", "recorded_result": 4.90}
